Tested on: UACC-257 melanoma
Procedure text: NCI tumour cell line growth inhibition, 48 h; in the data active means GI50 below about 0.43 µM; inactive means the rest
Mark one answer only. Choices: 1 (active), -1 (inactive)

Q: What call does the record list for `Cc1cc2nc(-c3ccc(O)c(O)c3)n(Cc3ccc(O)c(O)c3)c2cc1C` ?
Ans: -1

Q: Input `O=S(=O)(Nc1ccc(Cl)c(Cl)c1)c1ccc(-c2cnc(C3CC3)o2)cc1`
Ans: -1

Q: Input `Cc1nc2sc(C(=O)Nc3ccccc3)c(N)c2cc1C(=O)c1ccccc1`
Ans: -1

Q: Input `CSc1nc2ccc(C)cc2cc1/C=C1/C=C(c2ccccc2)NC1=O`
Ans: -1

Q: Input `Cn1cc(-c2csc(-c3cn(C(=O)OC(C)(C)C)c4ccccc34)n2)c2cccnc21`
Ans: -1

Q: Input `CNc1nc(-c2ccc3c(N)n[nH]c3c2)cc(N2C[C@@H](C(=O)NC3CCCCC3)CC[C@H]2C)n1`
Ans: -1

Q: Input `C[C@@H]1Cc2c(ccc3[nH]ncc23)[C@@H](c2ccc(NC3CN(CCCF)C3)cn2)N1CC(F)(F)F`
Ans: -1

Q: Input `N=C1C=C(N)C(=O)c2ccccc21`
Ans: 1

Q: Input `CC[C@@H](C(=O)[C@@H](C)[C@@H](O)[C@H](C)[C@@H]1O[C@@H]([C@@H](CC)C(=O)O)CC[C@@H]1C)[C@H]1O[C@]2(C=C[C@@H](O)[C@]3(CC[C@@](C)([C@H]4CC[C@](O)(CC)[C@H](C)O4)O3)O2)[C@H](C)C[C@@H]1C`
Ans: -1

Q: Input `COC(=O)Nc1nc2ccc(C(=O)c3cccs3)cc2[nH]1`
Ans: -1
